Assay: chemical genetic growth profiling, strain panel (AID 1159580);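 further: tested at 20 µM; growth read once vehicle control cultures reached saturation at 30 °C; lower values mean less growth of the strain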
Details: S. cerevisiae deletion strains, growth OD, locus YIL125W, strain kgd1
Screen size: about 5,500 compounds; about 2,000 (36%) were called active. Inconclusive results (about 18%) are left out. No stated cut-off is given here; in the data, active means normalized growth mostly below about 0.91 (no sharp cut-off); inconclusive means no clear call, values can overlap the other calls; inactive means mostly above about 0.92. Some of the results follow.
Lab note: assign the record to one of t for active, f for inactive

                                   compound  answer_label
0    Cc1cc(O)c2c(c1)C(=O)c1cc(O)cc(O)c1C2=O             t
1  CCC[C@@H]1C[C@@H](C(=O)N[C@H]([C@H]2O[C@H](SC)[C@H](O)[C@@H](O)[C@H]2O)[C@H](C)O)N(C)C1             f
2  ClC1C(Cl)C(Cl)C(Cl)C(Cl)C1Cl (stereo not drawn)             t
3  COC(=O)C[C@H]1C(C)(C)[C@H](O)[C@@H]2CC3=C4CC(O)O[C@@H](c5ccoc5)[C@]4(C)CCC3[C@@]1(C)C2=O (stereo partly drawn)             f
4  COc1ccc(-c2c(OC)c3c(OC)c4c(cc3oc2=O)OC(C)(C)C=C4)cc1             f
5   C/C(=C\CO)CC[C@H](C)CCC[C@H](C)CCCC(C)C             t
6  COc1cc(OC)c2c(OC)c(-c3ccc4c(c3)OCO4)c(=O)oc2c1             f
7  COC(=O)CC1C(C)(C)C(=O)C2CC3(O)C4=CC(=O)OC(c5ccoc5)C4(C)CCC3C1(C)C2=O (stereo not drawn)             f
8  C=C(C)C1Cc2c(ccc(C(=O)O)c2O)O1 (stereo not drawn)             t
9  CC(=O)OC1CCC2(O)CC1(C)CCC1C2CC1(C)C (stereo not drawn)             f

Req: // outcome(item) with item = "COc1cc([C@@H]2c3cc4c(cc3[C@H](O)[C@H]3COC(=O)[C@H]23)OCO4)cc(OC)c1OC"
Resp: f

Req: Also need CC(=O)O[C@@H]1C2CC[C@@H]3C1(C[C@@H](O)[C@@]1(O)[C@@H](C[C@H](O)C1(C)C)[C@]3(C)O)C[C@@]2(C)O (stereo partly drawn) , thanks.
Resp: f

Req: Thanks! And NC(Cc1ccc(Cl)cc1)C(=O)O (stereo not drawn) ?
Resp: f

Req: // same read-out, input: "O=C1NS(=O)(=O)c2ccccc21"
Resp: f

Req: Follow-up item: "CC(=O)NS(=O)(=O)c1ccc(N)cc1"
Resp: f

Req: # repeat for "COc1cc(Cc2cnc(N)nc2N)cc(OC)c1OC"
Resp: f

Req: Same for C=C(C)C1Cc2c(ccc3c(=O)c4c(oc23)COc2cc(OC)c(OC)cc2-4)O1 (stereo not drawn)
Resp: f

Req: Also, "CNC(C)(C)Cc1ccccc1" please.
Resp: f

----------
Assay: chemical genetic growth profiling, strain panel (AID 1159580);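 further: tested at 20 µM; growth read once vehicle control cultures reached saturation at 30 °C; lower values mean less growth of the strain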
Conditions: S. cerevisiae deletion strains, growth OD, locus YML032C, strain rad52
About 2,000 (36%) of roughly 5,500 compounds were called active. Roughly 18% stayed inconclusive and do not appear here. No stated cut-off is given here; in the data, active means normalized growth mostly below about 0.91 (no sharp cut-off); inconclusive means no clear call, values can overlap the other calls; inactive means mostly above about 0.92. The list shows a part of the results.
Field 'call' accepts active, inactive

Example entries and their recorded answers appear below.
>>> print(df.to_string())
                                   compound  answer_label
0             CCCc1ncc(C[n+]2ccccc2C)c(N)n1      inactive
1       CC(=O)CCCCn1c(=O)c2c(ncn2C)n(C)c1=O      inactive
2                      CN1CCC[C@H]1c1cccnc1      inactive
3    Cc1cc(O)c2c(c1)C(=O)c1cc(O)cc(O)c1C2=O        active
4  Cc1ccc(O)c(C(CCN(C(C)C)C(C)C)c2ccccc2)c1 (configuration not stated)      inactive

Req: Short answer needed: outcome of this test for CC(NC(C)(C)C)C(=O)c1cccc(Cl)c1 (configuration not stated) ?
Resp: inactive

Req: What about this compound? "CCC[C@@H]1C[C@@H](C(=O)N[C@H]([C@H]2O[C@H](SC)[C@H](O)[C@@H](O)[C@H]2O)[C@H](C)O)N(C)C1"
Resp: inactive

Req: // repeat for O=C1C(=O)c2ccccc2C(O)=C1C1CCC(c2ccc(Cl)cc2)CC1 (configuration not stated) and report
Resp: inactive

Req: Another: "COc1ccc(NS(=O)(=O)c2ccc(N)cc2)nn1"
Resp: inactive

Req: Another: "C=C[C@H]1CN2CC[C@H]1C[C@H]2[C@H](O)c1ccnc2ccccc12"
Resp: inactive

Req: Please do the same for "O=C1C=CC(=O)c2c(O)cccc21" as well.
Resp: inactive

Req: Now the same for "Cn1c(=O)c2c(ncn2C)n(C)c1=O"
Resp: inactive

Req: Same lookup for C=C(C)C1Cc2c(ccc(C(=O)O)c2O)O1 (configuration not stated) , please.
Resp: inactive

Req: // query: "CNC(=O)Oc1ccccc1OC(C)C"
Resp: inactive

Req: Now consider "Cn1c(=O)c2c(ncn2CCCl)n(C)c1=O" and answer again.
Resp: inactive

Req: Next record, please: "Cn1c(=O)[nH]c2ncn(C)c2c1=O"
Resp: inactive

Req: Okay, and "O=C1c2cccc(O)c2C(=O)c2c(O)cccc21" ?
Resp: active
